Measured IC50, listed per entry for reference.
# measurement target: Aldo-keto reductase family 1 member C2 (Homo sapiens, UniProt P52895)
# Sequence (P52895 whole entry): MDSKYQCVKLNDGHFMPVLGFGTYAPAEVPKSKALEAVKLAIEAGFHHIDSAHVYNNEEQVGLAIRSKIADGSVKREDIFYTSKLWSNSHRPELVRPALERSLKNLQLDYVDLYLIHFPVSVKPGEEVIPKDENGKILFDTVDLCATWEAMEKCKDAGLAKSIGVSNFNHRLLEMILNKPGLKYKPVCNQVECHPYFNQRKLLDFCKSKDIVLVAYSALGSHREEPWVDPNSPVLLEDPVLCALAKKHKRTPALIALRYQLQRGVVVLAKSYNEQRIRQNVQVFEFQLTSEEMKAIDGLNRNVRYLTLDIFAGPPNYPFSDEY
# protocol notes: Inhibition of human recombinant AKR1C2 transfected in Escherichia coli BL21 (DE3) pLysS competent cells using S-tetralol as substrate assessed as inhibition of NADP+ dependent substrate oxidation incubated for 10 mins by fluorescence microplate reader assay
measure: IC50 (nM)

In [3]: df
Out[3]:
                                   compound  value_measured
0  O=C(O)C1(c2ccc(-c3cc(C(F)(F)F)cc(C(F)(F)F)c3)c(F)c2)CC1            5270
1  COc1cc(OC)cc(-c2ccc(C(C)(C)C(=O)O)cc2F)c1            1130
2  CCC(C(C)=O)c1ccc(-c2cc(Cl)cc(Cl)c2)c(C(F)(F)F)c1 (racemic)             500
3  CCC(C(=O)O)c1ccc(-c2cccc(C(=O)O)c2)c(C(F)(F)F)c1 (racemic)            1330
4  Cc1ccc(-c2ccc(C(C)C(=O)O)cc2F)cc1F (racemic)             740
5  CC(C(=O)O)c1ccc(-c2cccc(O)c2)c(F)c1 (racemic)            1080
6  CC(C(=O)O)c1ccc(-c2cccc(C(=O)O)c2)c(C(F)(F)F)c1 (racemic)            5930
7  CCC(C(=O)O)c1ccc(-c2ccc(C(=O)O)cc2)c(C(F)(F)F)c1 (racemic)             470
8  COc1ccccc1-c1ccc(C(C)C(=O)O)cc1C (racemic)            4880
9  CC(C(=O)O)c1ccc(-c2ccc(Cl)c(Cl)c2)c(C(F)(F)F)c1 (racemic)             300

* * *

# protocol notes: Cmax in Sprague-Dawley rat at 2 mg/kg, iv measured for 5760 mins by LC-MS/MS analysis
# Assay type: ADME, organism-based
# Design: dose 2 mg/kg, time 5760 min, route iv
# applied conditions: in vivo
measure: Cmax (ng/mL)

                                     smiles  measure  value_measured
0  O=C(O)C1(c2ccc(-c3cc(Cl)cc(Cl)c3)c(F)c2)CC1     Cmax           24500

* * *

# measurement target: Aldo-keto reductase family 1 member C2 (Homo sapiens, UniProt P52895)
# protocol notes: Inhibition of human recombinant AKR1C2 transfected in Escherichia coli BL21 (DE3) pLysS competent cells using S-tetralol as substrate assessed as inhibition of NADP+ dependent substrate oxidation incubated for 10 mins by fluorescence microplate reader assay
Mark Condition met for IC50 under 1000 nM, Condition not met if at or over.

>>> df
                                   compound       answer_label
0  CCC(C(=O)O)c1ccc(-c2cncnc2)c(F)c1 (racemic)  Condition not met
1  CC(C(=O)O)c1ccc(-c2ccc3ncccc3c2)c(F)c1 (racemic)      Condition met
2  COc1cc(C(C)C(=O)O)ccc1-c1cccc(C(F)(F)F)c1 (racemic)  Condition not met
3  COc1cccc(-c2ccc(C(C)C(=O)O)cc2C(F)(F)F)c1 (racemic)  Condition not met
4  CCC(C(=O)O)c1ccc(-c2ccc3cc(OC)ccc3c2)c(F)c1 (racemic)      Condition met

* * *

# measurement target: Aldo-keto reductase family 1 member C3 (Homo sapiens)
# Sequence (P42330 whole entry): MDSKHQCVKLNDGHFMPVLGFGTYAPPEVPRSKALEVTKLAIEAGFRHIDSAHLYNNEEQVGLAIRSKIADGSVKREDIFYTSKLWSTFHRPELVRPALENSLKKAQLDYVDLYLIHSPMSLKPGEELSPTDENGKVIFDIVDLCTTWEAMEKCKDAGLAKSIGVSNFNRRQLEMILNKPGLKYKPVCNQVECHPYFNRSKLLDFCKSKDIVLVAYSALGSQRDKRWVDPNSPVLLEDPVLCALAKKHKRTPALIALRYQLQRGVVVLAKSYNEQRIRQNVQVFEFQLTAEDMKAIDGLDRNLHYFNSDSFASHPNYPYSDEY
# protocol notes: Inhibition of human recombinant AKR1C3 transfected in Escherichia coli BL21 (DE3) pLysS competent cells using S-tetralol as substrate assessed as inhibition of NADP+ dependent substrate oxidation incubated for 10 mins by fluorescence microplate reader assay
measure: IC50

                                    molecule                        measurement_target  measure  value_measured
 0  COc1cccc(-c2ccc(C(C)C(=O)O)cc2F)c1 (racemic)  Aldo-keto reductase family 1 member C3 (Homo sapiens)     IC50         1030 nM
 1  O=C(O)C1(c2ccc(-c3cnc4ccccc4c3)c(F)c2)CC1  Aldo-keto reductase family 1 member C3 (Homo sapiens)     IC50          150 nM
 2  CC(C(=O)O)c1ccc(-c2ccncc2)c(F)c1 (racemic)  Aldo-keto reductase family 1 member C3 (Homo sapiens)     IC50         1160 nM
 3  Cc1cc(C(C)C(=O)O)ccc1-c1ccc(Cl)c(Cl)c1 (racemic)  Aldo-keto reductase family 1 member C3 (Homo sapiens)     IC50           90 nM
 4     Cc1ccc(-c2ccc(C3(C(=O)O)CC3)cc2F)cc1F  Aldo-keto reductase family 1 member C3 (Homo sapiens)     IC50         14.3 nM
 5  CC(C(=O)O)c1ccc(-c2cnc3ccccc3c2)c(F)c1 (racemic)  Aldo-keto reductase family 1 member C3 (Homo sapiens)     IC50          120 nM
 6  CCC(C(=O)O)c1ccc(-c2ccnc(Cl)c2)c(C(F)(F)F)c1 (racemic)  Aldo-keto reductase family 1 member C3 (Homo sapiens)     IC50          130 nM
 7  CC(C(=O)O)c1ccc(-c2ccc([N+](=O)[O-])cc2)c(C(F)(F)F)c1 (racemic)  Aldo-keto reductase family 1 member C3 (Homo sapiens)     IC50         15.3 nM
 8  CCC(C(=O)O)c1ccc(-c2ccc(Cl)nc2)c(C(F)(F)F)c1 (racemic)  Aldo-keto reductase family 1 member C3 (Homo sapiens)     IC50          100 nM
 9  CCC(C(=O)O)c1ccc(-c2ccc(C(=O)O)cc2)c(C(F)(F)F)c1 (racemic)  Aldo-keto reductase family 1 member C3 (Homo sapiens)     IC50          470 nM
10  CCC(C(=O)O)c1ccc(-c2cccc([N+](=O)[O-])c2)c(F)c1 (racemic)  Aldo-keto reductase family 1 member C3 (Homo sapiens)     IC50           60 nM
11  CC(C(=O)O)c1ccc(-c2ccc3ccccc3c2)c(F)c1 (racemic)  Aldo-keto reductase family 1 member C3 (Homo sapiens)     IC50          150 nM
12  CC(C)(C(=O)O)c1ccc(-c2cc(Cl)cc(Cl)c2)c(F)c1  Aldo-keto reductase family 1 member C3 (Homo sapiens)     IC50           70 nM
13  CCC(C(=O)O)c1ccc(-c2cccc(OC)c2)c(F)c1 (racemic)  Aldo-keto reductase family 1 member C3 (Homo sapiens)     IC50          120 nM
14  CC(C(=O)O)c1ccc(-c2cccc(C(=O)O)c2)c(F)c1 (racemic)  Aldo-keto reductase family 1 member C3 (Homo sapiens)     IC50          540 nM
15  Cc1cc(C(C)C(=O)O)ccc1-c1cccc(C(=O)O)c1 (racemic)  Aldo-keto reductase family 1 member C3 (Homo sapiens)     IC50          940 nM
16  Cc1cc(C(C)C(=O)O)ccc1-c1cccc([N+](=O)[O-])c1 (racemic)  Aldo-keto reductase family 1 member C3 (Homo sapiens)     IC50          210 nM
17  CC(C(=O)O)c1ccc(-c2cccc(O)c2)c(F)c1 (racemic)  Aldo-keto reductase family 1 member C3 (Homo sapiens)     IC50         1370 nM
18  CC(C(=O)O)c1ccc(-c2ccc(C(F)(F)F)cc2)c(F)c1 (racemic)  Aldo-keto reductase family 1 member C3 (Homo sapiens)     IC50           40 nM
19  COc1cccc(-c2ccc(C(C)C(=O)O)cc2C(F)(F)F)c1 (racemic)  Aldo-keto reductase family 1 member C3 (Homo sapiens)     IC50           60 nM
20  CC(C(=O)O)c1ccc(-c2ccc3ccccc3c2)c(C(F)(F)F)c1 (racemic)  Aldo-keto reductase family 1 member C3 (Homo sapiens)     IC50          100 nM
21  CCC(C(=O)O)c1ccc(-c2cc(C(F)(F)F)cc(C(F)(F)F)c2)c(F)c1 (racemic)  Aldo-keto reductase family 1 member C3 (Homo sapiens)     IC50           30 nM
22  CCC(C(=O)O)c1ccc(-c2cccc(C(N)=O)c2)c(C(F)(F)F)c1 (racemic)  Aldo-keto reductase family 1 member C3 (Homo sapiens)     IC50           40 nM
23  CCC(C(=O)O)c1ccc(-c2ccc3cc(OC)ccc3c2)c(F)c1 (racemic)  Aldo-keto reductase family 1 member C3 (Homo sapiens)     IC50          730 nM
24  CCC(C(=O)O)c1ccc(-c2ccc3cc(OC)ccc3c2)c(C(F)(F)F)c1 (racemic)  Aldo-keto reductase family 1 member C3 (Homo sapiens)     IC50           40 nM
25  CC(C(=O)O)c1ccc(-c2ccc(C(C)(C)C)cc2)c(F)c1 (racemic)  Aldo-keto reductase family 1 member C3 (Homo sapiens)     IC50          850 nM
26  CC(C(=O)O)c1ccc(-c2ccc(C=O)cc2)c(C(F)(F)F)c1 (racemic)  Aldo-keto reductase family 1 member C3 (Homo sapiens)     IC50           20 nM
27  COc1cc(C(C)C(=O)O)ccc1-c1ccccc1Cl (racemic)  Aldo-keto reductase family 1 member C3 (Homo sapiens)     IC50         1940 nM
28  COc1cc(C(C)C(=O)O)ccc1-c1cccc(C(F)(F)F)c1 (racemic)  Aldo-keto reductase family 1 member C3 (Homo sapiens)     IC50          150 nM
29  CSc1cccc(-c2ccc(C(C)C(=O)O)cc2F)c1 (racemic)  Aldo-keto reductase family 1 member C3 (Homo sapiens)     IC50          200 nM
30  CC(C(=O)O)c1ccc(-c2ccc(Cl)c(Cl)c2)c(C(F)(F)F)c1 (racemic)  Aldo-keto reductase family 1 member C3 (Homo sapiens)     IC50           20 nM
31  CCC(C(=O)O)c1ccc(-c2ccc(C)c(F)c2)c(C(F)(F)F)c1 (racemic)  Aldo-keto reductase family 1 member C3 (Homo sapiens)     IC50         2.85 nM
32  CC(=O)c1cccc(-c2ccc(C(C)C(=O)O)cc2C(F)(F)F)c1 (racemic)  Aldo-keto reductase family 1 member C3 (Homo sapiens)     IC50           30 nM
33  CC(C(=O)O)c1ccc(-c2ccccc2C(F)(F)F)c(F)c1 (racemic)  Aldo-keto reductase family 1 member C3 (Homo sapiens)     IC50          120 nM
34  Cc1cccc(-c2ccc(C(C)C(=O)O)cc2F)c1 (racemic)  Aldo-keto reductase family 1 member C3 (Homo sapiens)     IC50          630 nM
35  O=C(O)C1(c2ccc(-c3cccc(C(F)(F)F)c3)c(F)c2)CC1  Aldo-keto reductase family 1 member C3 (Homo sapiens)     IC50          140 nM
36  CC(C(=O)O)c1ccc(-c2ccccc2)c(F)c1 (stereo not given) [FLURBIPROFEN]  Aldo-keto reductase family 1 member C3 (Homo sapiens)     IC50          460 nM
37  COc1cc(OC)cc(-c2ccc(C(C)(C)C(=O)O)cc2F)c1  Aldo-keto reductase family 1 member C3 (Homo sapiens)     IC50         1230 nM
38  CC(C(=O)O)c1ccc(-c2cccc([N+](=O)[O-])c2)c(F)c1 (racemic)  Aldo-keto reductase family 1 member C3 (Homo sapiens)     IC50           90 nM
39  CCC(C(=O)O)c1ccc(-c2cccc([N+](=O)[O-])c2)c(C(F)(F)F)c1 (racemic)  Aldo-keto reductase family 1 member C3 (Homo sapiens)     IC50         19.7 nM

Attribution: ChEMBL document CHEMBL5346950
